- Test system: MKL-2
- protocol-text: qHTS assay to identify novel small-molecules to repurpose for Merkel cell carcinoma treatment (AID 1296009); also: nearly all actives have a fitted effect of over 60% in size
- test-context: MCC and control cell lines, CellTiter-Glo viability, 72 h; series mostly up to 46 µM
Records with an inconclusive call do not appear. Active and inactive are the calls of the source. Calls follow the shape of the dose curve; as a rule, active = well fitted inhibition curve with a large enough effect; inconclusive = small, poorly fitted or top-dose-only effect; inactive = flat fitted curve, though single readings scatter.
The reply should be one of these categories: y (active), n (inactive)

Examples with answers:
[in] // outcome(item) with item = CC1=C(C(=O)Nc2cc3cn[nH]c3cc2F)C(c2ccc(Cl)cc2F)N=C(c2ccnc(Cl)c2)N1 (stereo unspecified)
[out] y

[in] Could you please tell me the result logged for Oc1cc2c(cc1O)C1c3ccc(O)c(O)c3OCC1(O)C2 (stereo unspecified) in this assay?
[out] n

[in] Each compound tested received a call. Report the one for CC(=CC(=O)Nc1ccccc1C(=O)O)c1ccc2ccccc2c1 .
[out] n

[in] Would you mind telling me which call this test gave CC(C)N(CC[C@H](c1ccccc1)c1cc(CO)ccc1O)C(C)C ?
[out] n

New cases:
[in] What outcome does the record of this test show for CCOC(=O)C1=C(C)NC(=S)NC1c1cccc(O)c1 (stereo unspecified) ?
[out] n

[in] Would you mind telling me which call this test gave CCCCOc1ccc(C(=O)Nc2ccc(F)cc2F)cc1 ?
[out] n

Provenance of the data: PubChem BioAssay (NCATS)
